test system: ChaGo-K-1; test: relative viability (nuclei count vs DMSO), 5 days (fraction); higher = more cells survive; conditions: first compound 0.05 µM
# relative viability per entry

COMPOUND | relative viability
COc1cc2nccc(Oc3ccc(NC(=O)Nc4cc(C)on4)c(Cl)c3)c2cc1OC [Tivozanib] + O=C(CCCCCCC(=O)Nc1ccccc1)NO [Vorinostat] (partner 1 µM) | 0.773
Nc1ccn([C@@H]2O[C@H](CO)[C@@H](O)[C@@H]2O)c(=O)n1 [Cytarabine] + CCNC(=O)c1noc(-c2cc(C(C)C)c(O)cc2O)c1-c1ccc(CN2CCOCC2)cc1 [Luminespib] (partner 0.01 µM) | 0.263
Nc1ccn([C@@H]2O[C@H](CO)[C@@H](O)[C@@H]2O)c(=O)n1 [Cytarabine] + Cc1cc(Nc2cc(N3CCN(C)CC3)nc(Sc3ccc(NC(=O)C4CC4)cc3)n2)n[nH]1 [Tozasertib] (partner 0.1 µM) | 0.208
